Attribution: PubChem BioAssay (EPA / NIEHS)

- experimental.target: Paired box protein Pax-6 (Homo sapiens)
- procedure.text: ATG_Pax6_CIS: Attagene CIS-FACTORIAL HepG2 Assay for human Paired Box 6 (PAX6) (AID 2282956)
- experimental.context: HepG2 CIS-FACTORIAL PAX6 reporter transcription, RNA readout; actives raise or lower the signal
Active and inactive are the calls of the source. The calls were made as follows: active = hit-call score of the fitted dose curve at least 0.9, where 1 is the maximum; inactive = score below 0.9.
reported.metric: outcome

// below: answered compounds
compound	outcome
COc1ccc(N)c(C)c1	inactive
CCC(C)C1CCCCC1=O (stereo not drawn)	inactive
CCCCCCCCCCCCS	inactive
O=C(O)c1ccc(C(=O)O)c(C(=O)O)c1	inactive

Would you be so kind as to report outcome for each listed record?
1. CC(C)CCOC(=O)CC(C)C
2. CCCOC(=O)CC
3. CCCC(O)C(CC)CO (stereo not drawn)
4. CCCCC(CC)COCCO (stereo not drawn)
5. Cc1cc(O)c(C)c(C)c1O
6. CC(O)CNCC(C)O (stereo not drawn)
7. CCCCCCCCCO
8. C=C1CC/C=C(\C)CC[C@@H]2[C@@H]1CC2(C)C

Result ::
1. inactive
2. inactive
3. inactive
4. inactive
5. inactive
6. inactive
7. inactive
8. inactive

Hi, could you look up outcome for each item in my list?
1. CC(C)(C)c1ccc(S)cc1
2. CC(C)(C)C1CCC(O)CC1 (stereo not drawn)
3. S=c1[nH][nH]c(=S)s1

Result ::
["inactive", "inactive", "inactive"]

// for each compound in input: emit outcome
1. ClCCOCCOCCCl
2. C=C(C)C(=O)OCCOCCOC(=O)C(=C)C

Result ::
["inactive", "inactive"]
